Assayed system: Human cGAS amino acids 155-522 (Homo sapiens (Human))
Sequence (Q8N884 157-522): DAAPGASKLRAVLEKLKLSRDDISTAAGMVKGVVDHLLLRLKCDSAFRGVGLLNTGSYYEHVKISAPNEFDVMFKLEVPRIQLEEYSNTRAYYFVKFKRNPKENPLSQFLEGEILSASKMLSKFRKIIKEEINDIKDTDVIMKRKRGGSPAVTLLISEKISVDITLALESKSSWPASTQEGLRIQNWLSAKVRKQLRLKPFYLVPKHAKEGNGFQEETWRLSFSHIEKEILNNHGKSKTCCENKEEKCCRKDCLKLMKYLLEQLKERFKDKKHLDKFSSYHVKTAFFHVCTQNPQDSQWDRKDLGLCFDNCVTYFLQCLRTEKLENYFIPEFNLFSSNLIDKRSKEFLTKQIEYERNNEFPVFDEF
Test summary: cGAS biochemical activity assay (ATP remaining, Kinase-Glo Max luminescence)
Study conditions: human cGAS 155-522, ATP remaining (Kinase-Glo Max); read-out: cGAS IC50
Below: a set of entries, each annotated with reported IC50.

# count of solved cases: 5
COc1cccn2nc(-c3c(C)[nH]c4c(-c5ccccc5)c(C(F)(F)F)nn4c3=O)nc12 :: 20 to 250 µM
Cc1nnc(-c2c(C)[nH]c3c(-c4ccccc4)c(C(F)(F)F)nn3c2=O)[nH]1 :: 20 to 250 µM
CCc1cccc2oc(-c3c(C)[nH]c4c(-c5ccccc5)c(C(F)(F)F)nn4c3=O)nc12 :: < 20 µM
Cc1[nH]c2c(-c3ccccc3)c(C(F)(F)F)nn2c(=O)c1C(=O)Nc1[nH]nc(C(F)(F)F)c1C(C)C :: 20 to 250 µM
COC1CCN(c2nnc(-c3c(C)[nH]c4c(-c5ccccc5)c(C(F)(F)F)nn4c3=O)o2)C1 (stereo not shown) :: < 20 µM

Return reported IC50; argument: COc1c(C#N)ccc2oc(-c3c(C)[nH]c4c(-c5ccccc5)c(C(F)(F)F)nn4c3=O)nc12
< 20 µM

Entry under review: Cc1[nH]c2c(-c3ccccc3)c(C(F)(F)F)nn2c(=O)c1-c1nnc(N2CCN(C)CC2)o1 . Reported IC50?
20 to 250 µM

Dear colleague, I am looking for the recorded IC50 of the following compound: COc1ccnc(NC(=O)c2c(C)[nH]c3c(-c4ccccc4)c(C(F)(F)F)nn3c2=O)n1
< 20 µM

Look at this compound and give its reported IC50. COc1cccc2oc(-c3c(COCc4cnc[nH]4)[nH]c4c(-c5ccccc5)c(C(F)(F)F)nn4c3=O)nc12
< 20 µM

Using the record for Cc1[nH]c2c(-c3ccccc3)c(C(F)(F)F)nn2c(=O)c1CC(=O)Nc1cccnc1 , report its IC50.
20 to 250 µM

// lookup IC50 for COc1cc(C(=O)O)cc2oc(-c3c(C)[nH]c4c(-c5ccccc5)c(C(F)(F)F)nn4c3=O)nc12
< 20 µM
